System: SR
assay-details: NCI tumour cell line growth inhibition, 48 h
Activity calls are given as the source filed them. Cut-off read from the data, not from the text of the source: active = GI50 up to about 1.1 µM and inactive = higher.
outcome-measure: GI50

INSERT INTO assay_data (compound, endpoint_result) VALUES
  ('CCOC(=S)SSSC(=S)OCC', '13.5 µM (inactive)'),
  ('C=C(C)c1nc(Oc2ccccc2)nc(Oc2ccccc2)n1', '2.86 µM (inactive)'),
  ('CCOc1ccccc1NC(=O)C(=O)c1c(O)c2ccc(O)cc2oc1=O', '> 100 µM (inactive)');

// fetch SR GI50 for Cc1ccc(-n2cc(-c3ccc(Cl)cc3)c3c2N=CN2N=C(c4ccco4)NC32)cc1 (stereo unspecified)
0.78 µM (active)

Consider next the compound CC1=N/C(=C\c2ccc(C)cc2)C(=O)O1 in the same way.
> 100 µM (inactive)

Consider next the compound C=CC1(C)CCC2C(=CCC3C(C)(COC4OC(C(=O)O)C(O)C(O)C4O)C(O)CCC23C)C1.C=CC1(C)CCC2C(=CCC3C2(C)CC(O)C(O)C3(C)COC2OC(C(=O)O)C(O)C(O)C2O)C1 (stereo unspecified) in the same way.
44.6 µM (inactive)
